test system: T1, MAGEB2 peptide … (SEQ ID NO: 1) complexed with HLA-A*02:01 on the cell surface (human)
T1 construct: whole, on cells; also called pMAGE-HLA; MAGEB2 pMHC
assay overview: flow cytometry, peptide-loaded T2 cells;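 also: binding of single-chain Fv antibody constructs, raised in XenoMouse, to peptide-pulsed T2 cells measured by flow cytometry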
# Signal/background per record follows
# output: bare number, no unit

18181-F3 (scFv, scFv in bacterial lysate, detected with anti-Flag M2) scFv: EVQLLESGGGLVQPGGSLRLSCAASGFTFSNAWMSWVRQAPGKGLEWVGRIKGNTYGGTTDYAAPVKGRFTISRDDSKNTLFLQMNSLKTEDTAVYYCTTPSYSGSYYNYFSVMDVWGQGTTVTVSSGGGGSGGGGSGGGGSELVMTQSPSSLSASVGDRVTITCRTSQSISSYLNWYQQKPGRAPKLLIFAASSLQGGVPSRFSGSGSGTDFTLTISSLQPEDFATYYCQQSYSSPFTFGPGTKVEIK = 232

Alright, here's another binder for you.
Data request: Given 18081-E7 (scFv, scFv in bacterial lysate, detected with anti-Flag M2) scFv: EVQLLESGPGLVKPSETLSLTCTVSGDSISSSRYYWGWIRQPPGKGLEWIGSIYYSGSTYYNPSLKSRVTISVDTSKNQFSLKLSSVTAADTAVYYCARGIFGVITYFDYWGQGTLVTVSSGGGGSGGGGSGGGGSELVMTQTPDSLAVSLGERATINCKSSQSVLYSSNNKNYLAWYQQKPGQPPKLLIYWASTRESGVPDRFSGSGSGTDFTLTISSLQAEDVAVYYCQQYYSTPLTFGGGTKVEIK , state its recorded Signal/background.
Data returned: 298
